Target: Renin (Rattus norvegicus)
Sequence (P08424 whole entry): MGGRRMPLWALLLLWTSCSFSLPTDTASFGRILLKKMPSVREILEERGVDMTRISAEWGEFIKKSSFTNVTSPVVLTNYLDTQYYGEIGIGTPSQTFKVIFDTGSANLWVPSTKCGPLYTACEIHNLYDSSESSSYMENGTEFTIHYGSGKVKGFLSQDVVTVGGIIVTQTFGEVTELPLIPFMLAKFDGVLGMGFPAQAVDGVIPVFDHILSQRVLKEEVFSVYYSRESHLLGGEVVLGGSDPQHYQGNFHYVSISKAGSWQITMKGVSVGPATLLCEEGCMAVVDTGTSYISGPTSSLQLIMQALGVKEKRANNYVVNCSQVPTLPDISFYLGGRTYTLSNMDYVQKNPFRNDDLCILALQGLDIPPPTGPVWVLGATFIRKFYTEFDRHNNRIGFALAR
Experiment: Inhibitory activity against rat plasma renin in vitro.
*1 amine or outer side, *2 acyl side, *3 side chain or, on linkers, in order; H or OH if unused. Where a SMILES comes first, the peptide text is derived from it. [ ]: non-standard residue; d: D form. Ahppa(3S,4S) = O=C(C[C@H](O)[C@H](Cc1ccccc1)N[*:1])[*:2]; ACHPA = O=C(C[C@H](O)[C@H](CC1CCCCC1)N[*:1])[*:2]; Sta = CC(C)C[C@H](N)[C@@H](O)CC(=O)O; Chg = N[C@H](C(=O)O)C1CCCCC1; Tle = CC(C)(C)[C@H](N)C(=O)O
measured-property: IC50 (µM)
// units = µM; emit number, no label

Example entries and their recorded answers appear below.
CC(=O)N[C@@H](Cc1c[nH]cn1)C(=O)N1CCC[C@H]1C(=O)N[C@@H](Cc1ccccc1)C(=O)N[C@H](C(=O)N[C@@H](CC(C)C)[C@@H](O)CC(=O)N[C@@H](CC(C)C)C(=O)N[C@@H](Cc1ccccc1)C(N)=O)C(C)(C)C (Ac-HPF[Tle][Sta]LF-NH2); 0.4
CC[C@H](C)[C@H](NC(=O)C[C@H](O)[C@H](CC1CCCCC1)NC(=O)[C@H](Cc1c[nH]cn1)NC(=O)[C@H](Cc1ccccc1)NC(=O)[C@@H]1CCCN1C(=O)[C@H](Cc1c[nH]cn1)NC(=O)[C@@H]1CCCN1)C(=O)N[C@@H](Cc1ccccc1)C(N)=O (H-PHPFH[ACHPA]IF-NH2); 0.065
CC(=O)N[C@@H](Cc1c[nH]cn1)C(=O)N1CCC[C@H]1C(=O)N[C@@H](CC(C)C)C(=O)N[C@@H](Cc1c[nH]cn1)C(=O)N[C@@H](CC(C)C)[C@@H](O)CC(=O)N[C@@H](CC(C)C)C(=O)N[C@@H](Cc1ccccc1)C(N)=O; 9.1
CC(=O)N[C@@H](Cc1ccccc1)C(=O)N1CCC[C@H]1C(=O)N[C@@H](Cc1ccccc1)C(=O)N[C@H](C(=O)N[C@@H](CC(C)C)[C@@H](O)CC(=O)N[C@@H](CC(C)C)C(=O)N[C@@H](Cc1ccccc1)C(N)=O)C(C)C (Ac-FPFV[Sta]LF-NH2); 0.042
CC(=O)N[C@@H](Cc1cnc[nH]1)C(=O)N1CCC[C@H]1C(=O)N[C@@H](Cc1ccccc1)C(=O)N[C@@H](CC(C)C)C(=O)N[C@@H](CC(C)C)[C@@H](O)CC(=O)N[C@@H](CC(C)C)C(=O)N[C@@H](Cc1ccccc1)C(N)=O; 0.31

# input Data request, read-out IC50, for CC(=O)N[C@H](C(=O)N1CCC[C@H]1C(=O)N[C@@H](Cc1ccccc1)C(=O)N[C@H](C(=O)N[C@@H](CC(C)C)[C@@H](O)CC(=O)N[C@@H](CC(C)C)C(=O)N[C@@H](Cc1ccccc1)C(N)=O)C(C)C)C1CCCCC1 (Ac-[Chg]PFV[Sta]LF-NH2)
# output 0.28

# input Which IC50 value is on record for CC(=O)N[C@@H](Cc1c[nH]cn1)C(=O)N1CCC[C@H]1C(=O)N[C@@H](Cc1ccccc1)C(=O)N[C@H](C(=O)N[C@@H](CC(C)C)[C@@H](O)CC(=O)N[C@@H](CC(C)C)C(=O)N[C@@H](Cc1ccccc1)C(N)=O)C(C)C ?
# output 0.03

# input Entry CC(=O)N[C@@H](Cc1cnc[nH]1)C(=O)N1CCC[C@H]1C(=O)N[C@@H](Cc1ccccc1)C(=O)N[C@@H](Cc1cnc[nH]1)C(=O)N[C@@H](CC(C)C)[C@@H](O)CC(=O)N[C@@H](CC(C)C)C(=O)N[C@@H](Cc1ccccc1)C(N)=O has what IC50?
# output 0.21

# input Any idea what its IC50 is? The compound is CC(=O)N[C@@H](Cc1cnc[nH]1)C(=O)N1CCC[C@H]1C(=O)N[C@@H](Cc1ccccc1)C(=O)N[C@H](C(=O)N[C@@H](CC(C)C)[C@@H](O)CC(=O)N[C@@H](CC(C)C)C(=O)N[C@@H](Cc1ccccc1)C(N)=O)C1CCCCC1 (Ac-HPF[Chg][Sta]LF-NH2)
# output 2.5

# input Which IC50 is listed for COc1ccc(C[C@H](NC(C)=O)C(=O)N2CCC[C@H]2C(=O)N[C@@H](Cc2ccccc2)C(=O)N[C@H](C(=O)N[C@@H](CC(C)C)[C@@H](O)CC(=O)N[C@@H](CC(C)C)C(=O)N[C@@H](Cc2ccccc2)C(N)=O)C(C)C)cc1 (Ac-Y(Me)PFV[Sta]LF-NH2) ?
# output 0.034

# input I have this compound here, CC(=O)N[C@@H](Cc1cnc[nH]1)C(=O)N1CCC[C@H]1C(=O)N[C@@H](Cc1c[nH]c2ccccc12)C(=O)N[C@@H](Cc1cnc[nH]1)C(=O)N[C@@H](CC(C)C)[C@@H](O)CC(=O)N[C@@H](CC(C)C)C(=O)N[C@@H](Cc1ccccc1)C(N)=O (Ac-HPWH[Sta]LF-NH2) , and I need its recorded IC50.
# output 0.24

# input What value of IC50 has been recorded for this entry: CC(=O)N[C@@H](Cc1c[nH]cn1)C(=O)N1CCC[C@H]1C(=O)N[C@@H](Cc1ccccc1)C(=O)N[C@@H](Cc1c[nH]cn1)C(=O)N[C@@H](CC(C)C)[C@@H](O)CC(=O)N[C@H](C(=O)N[C@@H](Cc1ccccc1)C(N)=O)C(C)C (Ac-HPFH[Sta]VF-NH2)
# output 2.8

# input Consider the compound CC(C)C[C@H](NC(=O)C[C@H](O)[C@H](CC(C)C)NC(=O)[C@H](Cc1cnc[nH]1)NC(=O)[C@H](Cc1ccccc1)NC(=O)[C@@H]1CCCN1C(=O)[C@H](Cc1cnc[nH]1)NC(=O)[C@@H]1CCCN1)C(=O)N[C@@H](Cc1ccccc1)C(N)=O (H-PHPFH[Sta]LF-NH2) and give its measured IC50.
# output 0.24

# input For the compound shown here, CC[C@H](C)[C@H](NC(=O)C[C@H](O)[C@H](Cc1ccccc1)NC(=O)[C@H](Cc1c[nH]cn1)NC(=O)[C@H](Cc1ccccc1)NC(=O)[C@@H]1CCCN1C(=O)[C@H](Cc1c[nH]cn1)NC(=O)[C@@H]1CCCN1)C(=O)N[C@@H](Cc1ccccc1)C(N)=O (H-PHPFH[Ahppa(3S,4S)]IF-NH2) , give the reported IC50.
# output 0.37
